- Tested on: MKL-1
- Experimental Details: qHTS assay to identify novel small-molecules to repurpose for Merkel cell carcinoma treatment (AID 1296009); also: % is scaled to controls: 0 for no effect and ±100 for the full control effect; nearly all actives have a fitted effect of over 60% in size
- Assay Setup: MCC and control cell lines, CellTiter-Glo viability, 72 h; series mostly up to 46 µM
Records with an inconclusive call do not appear. Calls of active or inactive are those of the source. Calls follow the shape of the dose curve; as a rule, active = well fitted inhibition curve with a large enough effect; inconclusive = small, poorly fitted or top-dose-only effect; inactive = flat fitted curve, though single readings scatter.
Recorded Metric: outcome

[
  {
    "Compound": "O=C(O)c1cc(O)c2c(c1)C(=O)c1cccc(O)c1C2=O",
    "Experimental Result": "inactive"
  },
  {
    "Compound": "CC[C@H]1OC(=O)[C@H](C)[C@@H](O[C@H]2C[C@@](C)(OC)[C@@H](O)[C@H](C)O2)[C@H](C)[C@@H](O[C@@H]2O[C@H](C)C[C@H](N(C)C)[C@@H]2O)[C@](C)(O)C[C@@H](C)CN(C)[C@H](C)[C@@H](O)[C@]1(C)O",
    "Experimental Result": "inactive"
  },
  {
    "Compound": "C[C@@H](O)[C@H]1C(=O)N2C(C(=O)O)=C(S[C@@H]3CN[C@H](C(=O)N(C)C)C3)[C@H](C)[C@H]12",
    "Experimental Result": "inactive"
  },
  {
    "Compound": "C[C@@H]1CCN(C(=O)CC#N)C[C@H]1N(C)c1ncnc2[nH]ccc12",
    "Experimental Result": "inactive"
  },
  {
    "Compound": "CC=CCC(C)C(O)C1C(=O)NC(CC)C(=O)N(C)CC(=O)N(C)C(CC(C)C)C(=O)NC(C(C)C)C(=O)N(C)C(CC(C)C)C(=O)NC(C)C(=O)NC(C)C(=O)N(C)C(CC(C)C)C(=O)N(C)C(CC(C)C)C(=O)N(C)C(C(C)C)C(=O)N1C (configuration not stated)",
    "Experimental Result": "inactive"
  },
  {
    "Compound": "O=c1cc(-c2ccccc2)oc2cc(O)c(O)c(O)c12",
    "Experimental Result": "inactive"
  },
  {
    "Compound": "O=C(Nc1cc(Cl)cc2c1[nH]c1cnccc12)c1cccnc1",
    "Experimental Result": "inactive"
  }
]

###

- Study System: Catechol O-methyltransferase (Homo sapiens)
- Experimental Details: Confirmatory Screen for Target Class Profiling of Small Molecule Inhibitors of Methyltransferases (AID 1745852)
- Assay Setup: MTase-Glo luminescence, SAH detection, recombinant enzyme; measured here: COMT max response; stronger effect = lower value
# maps each entry to its activity

[
  {
    "Record Smiles": "CC1(C)CCC(CN2CCN(c3ccc(C(=O)NS(=O)(=O)c4ccc(NCC5CCOCC5)c([N+](=O)[O-])c4)c(Oc4cnc5[nH]ccc5c4)c3)CC2)=C(c2ccc(Cl)cc2)C1",
    "Unit Descriptor": "%",
    "activity": -3.58
  },
  {
    "Record Smiles": "O=C(Nc1ccccc1-c1cn2c(CN3CCNCC3)csc2n1)c1cnc2ccccc2n1",
    "Unit Descriptor": "%",
    "activity": -38.1
  },
  {
    "Record Smiles": "COc1cc(N2CCC(N3CCN(C)CC3)CC2)ccc1Nc1ncc(Cl)c(Nc2ccccc2S(=O)(=O)C(C)C)n1",
    "Unit Descriptor": "%",
    "activity": -29.5
  },
  {
    "Record Smiles": "CN1CCN(CCOc2cc(OC3CCOCC3)c3c(Nc4c(Cl)ccc5c4OCO5)ncnc3c2)CC1",
    "Unit Descriptor": "%",
    "activity": -14.1
  },
  {
    "Record Smiles": "CCc1ccc(C=C2SC(=S)NC2=O)cc1",
    "Unit Descriptor": "%",
    "activity": -2.96
  },
  {
    "Record Smiles": "CC1(C)CCC2=C(O1)c1ccccc1C(=O)C2=O",
    "Unit Descriptor": "%",
    "activity": -19.8
  },
  {
    "Record Smiles": "NC(=O)c1cnc(-c2ccc(C3(N)CCC3)cc2)c(-c2ccccc2)c1",
    "Unit Descriptor": "%",
    "activity": -7.58
  },
  {
    "Record Smiles": "COc1cc2ncnc(Nc3ccc(F)c(Cl)c3)c2cc1OCCCN1CCOCC1",
    "Unit Descriptor": "%",
    "activity": -74.8
  },
  {
    "Record Smiles": "CC[C@]1(O)C[C@@H]2CN(CCc3c([nH]c4ccccc34)[C@@](C(=O)OC)(c3cc4c(cc3OC)N(C)[C@H]3[C@@](O)(C(=O)OC)[C@H](OC(C)=O)[C@]5(CC)C=CCN6CC[C@]43[C@@H]65)C2)C1",
    "Unit Descriptor": "%",
    "activity": 7.74
  },
  {
    "Record Smiles": "COc1ccc(Cc2nccc3cc(OC)c(OC)cc23)cc1OC",
    "Unit Descriptor": "%",
    "activity": -10.8
  }
]

Measured values drawn from PubChem BioAssay (NCATS) for this set.
